Would you please tag the item label 1 when its MDR1-MDCK efflux ratio is 2 or above, and label 0 when it is below?

N#Cc1cc(F)c(C(=O)Nc2ccnc(NC(=O)[C@H]3C[C@H]3F)c2)c(Cl)c1; label 1
Cc1cc(C)nc(N2Cc3ccccc3C2=N)n1; label 0
CCc1ncc2c(n1)CN(c1ccnc(-c3ccccc3)n1)CC2; label 0
C#CCNC(=O)Cc1coc(-c2ccccc2)n1; label 0
COC(=O)c1c(C)[nH]c(C(=O)N(C)Cc2ccc(OC)c(F)c2)c1C; label 0
Cc1nc(NC(c2nccn2C)C2CC2)c2sccc2n1 (stereo not drawn); label 1
c1ccc(-c2cc3c(N4CCC(c5ncc[nH]5)CC4)ncnc3s2)cc1; label 1
c1cnc(NCc2cnc3ccsc3c2)nc1; label 0
COc1cc(F)ccc1-c1ncccc1NC(=O)C(C)C; label 1
Cc1c(CN2CCC(Nc3ncnc4sc(CC(F)(F)F)cc34)CC2)ccc2c1cc(C#N)n2Cc1cn[nH]c1; label 1
CN(Cc1cnn(C)c1)C(=O)c1ccccc1-c1ccccc1C#N; label 1
CN(CCO)C(=O)c1ccc(-c2cccc(C(F)(F)F)n2)cc1; label 0
COCCN(C)c1ccc(CN2CCOC3(CCCC3)C2)cn1; label 0
CN(C(=O)c1cc2ccc(C(C)(C)C)cc2[nH]1)C1(C#N)CCC1; label 0
CCOc1cc(N(C)CC2CCN(C)CC2)ncn1; label 0
Cc1cc(C(=O)NCCC2=CSC3=NCCCN23)c2cccc(C)c2n1; label 1
Cc1cccc(NC(=O)CN(C)Cc2nc3ccc(Cl)cc3c(=O)[nH]2)c1C; label 1
Cc1ccc(C(=O)N2CCN(C(=O)NCC(=O)N3CCCC3)CC2)cc1F; label 1

* * *

valueKind: intrinsic clearance, human liver microsomes

CC(C)NC(=O)N1CC[C@H](NC2=Nc3cc(F)ccc3N(CC(F)F)c3ccc(Cl)cc32)C1; 180 mL/min/kg
O=C(NCc1ccc(F)cc1)C1(Cc2ccc(-c3cccnc3)cc2)CCOCC1; 781 mL/min/kg
COc1ccccc1C(=O)Nc1cccc(-c2ccnc(C)n2)c1; 60.3 mL/min/kg
CCCn1ncnc1-c1ccccc1SC; 82.5 mL/min/kg
CN(C(=O)c1cc(N2CCNC2=O)ccc1F)C1CCNC1 (configuration not stated); ≤ 4.74 mL/min/kg
Cc1c[nH]c(C(=O)NCC2(N3CCCCC3)CCCC2)n1; 7.62 mL/min/kg
Cc1cc2ncn(CC(=O)NC(C)(C)C)c2cc1C; ≤ 4.74 mL/min/kg
NCCN1CCN(C/C=C/C(=O)N2CCC[C@@H](n3nc(-c4ccc(Oc5ccccc5)cc4)c4c(N)ncnc43)C2)CC1; 9.07 mL/min/kg
CCCCC1=NC2(CCCC2)C(=O)N1Cc1ccc(-c2ccccc2-c2nnn[nH]2)cc1; 9.16 mL/min/kg
COc1c(N)ncnc1N1CCCC(C)(C)CC1; 37.2 mL/min/kg
C#CCNC(=O)c1ccc2c(c1)OCO2; 14 mL/min/kg
C[C@]12CCC3=C4CCC(=O)C=C4CC[C@H]3[C@@H]1CC[C@@]2(O)CC#N; 21 mL/min/kg
Cc1cccn(Cc2cccc(F)c2)c1=O; ≤ 4.74 mL/min/kg
CC(=O)NC1(c2ccc(F)cc2)CCN(Cc2ccc(OC3CCCC3)cc2)CC1; 24.8 mL/min/kg
CN(C)Cc1ccnc(NC(=O)c2ccsc2)c1; 6.67 mL/min/kg
CC(C)c1noc(-c2ccc(N(C)Cc3cccnc3)nc2)n1; 45.6 mL/min/kg
CC(C)C[C@@H](C(N)=O)n1ccnc1-c1cccc2ccccc12; 329 mL/min/kg
Cc1nc([C@H]2CC[C@H](CNC(=O)CN3CCC(c4ccccc4)CC3)CC2)ccc1C(N)=O; 37.3 mL/min/kg
CC(C)(C)NC(=O)Cn1nc(C(c2ccccc2)c2ccccc2)oc1=O; 22.4 mL/min/kg
CN(C)c1ccnc2sc3c(=O)n(N4CCCCCC4)cnc3c12; 8.59 mL/min/kg
Cc1c[nH]c2nccc(Oc3c(F)cc(Nc4cc(Cl)nc(N)n4)cc3F)c12; 14.3 mL/min/kg
Cc1nc(-c2cccc(C(N)=O)c2)sc1-c1ccc(F)cc1; 18.1 mL/min/kg
Cc1nc(-c2ccccc2)c(C(=O)Nc2ccc(Cl)c(Cl)c2)s1; 89.2 mL/min/kg
COc1ccc(-c2noc([C@@H]3CCCN3Cc3cccnc3)n2)cn1; 98 mL/min/kg
CN(C)C1(CNC(=O)N2CCC=C(c3ccccc3)C2)CCOCC1; 34.8 mL/min/kg
Fc1cc(-c2noc(C3CCN(C4CC4)CC3)n2)cc(F)c1F; 75 mL/min/kg
Cc1ncsc1-c1cncc(CC2CCCN(C)C2)n1 (configuration not stated); 32 mL/min/kg
CCN(CC)CC(=O)N1CCC(n2c(=O)[nH]c3ccccc32)CC1; ≤ 4.74 mL/min/kg
O=c1[nH]c2ccccc2n1C1CCN(Cc2nc(Cc3ccccc3)no2)CC1; 69.7 mL/min/kg
Cc1nc(N2CCNCC2)c2cnn(C)c2n1; ≤ 4.74 mL/min/kg
O=C(Nc1cccc2ncccc12)[C@H]1CCCN(S(=O)(=O)c2cccs2)C1; 35.8 mL/min/kg
O=C(c1ccc2c(c1)OCO2)N1CCC(c2n[nH]c(C3CC3)n2)CC1; ≤ 4.74 mL/min/kg
CCc1noc(-c2ccc(C)c(N)c2)n1; 209 mL/min/kg
CCCCc1nc2cc(/C=C/C(=O)NO)ccc2n1CCN(CC)CC; ≤ 4.74 mL/min/kg
COc1cccc(Cc2nc3sc4c(c3c(=O)[nH]2)CCSC4)c1; 113 mL/min/kg
CS(=O)(=O)NC1CCN(C(=O)NCCc2ccc(F)cc2)CC1; ≤ 4.74 mL/min/kg
Cc1cc(C)c2c(c1)CCCN2C(=O)c1ccc(-c2nnc(C)o2)cc1; 149 mL/min/kg
CCOC(=S)SCC(=O)Nc1nc(-c2ccc(C3CCCCC3)cc2)cs1; 267 mL/min/kg
O=S1(=O)CCN(C2CCN(CC(F)(F)F)CC2)CC1; ≤ 4.74 mL/min/kg
C/N=C(\NC#N)NCCSCc1nc[nH]c1C; ≤ 4.74 mL/min/kg
CC(C)c1nc2c(n1C)CCN(c1ncnc3ccccc13)C2; 34.9 mL/min/kg
CS(=O)(=O)CCNc1ccc2ccc(F)cc2n1; 15.6 mL/min/kg

* * *

Define the label as t when MDR1-MDCK efflux ratio is strictly less than 0.7 and as f in all remaining cases.

O=C1NCCN(C(=O)c2ccncc2)C1c1ccccc1Cl (stereo unspecified); f
Cc1nccc(-c2cccc(NCc3cc(C)on3)c2)n1; t
O=C(NCc1nncn1-c1ccccc1)C1CCCC1; f
COc1ccccc1CNC(=O)C(C)N1CCCN(c2ccccc2C#N)CC1 (stereo unspecified); f
Fc1c(CN2CCC(c3nnc4ccccn34)CC2)cccc1OC1CC1; f
CON(C)C(=O)c1cc2ccc(C(C)(C)C)cc2[nH]1; t
CCc1noc(-c2ccc(CCN)cc2)n1; t
CC(=O)N1CCN(C(=O)CS(=O)(=O)C23CC4CC(CC(C4)C2)C3)CC1; f
Cc1ccc(-n2cc(C(=O)NCCN(C)C)nn2)cc1C; f
CC(=O)N1CC[C@H]2O[C@H]3c4ccc(O[C@@H]5O[C@H](CO)[C@@H](O[C@@H]6O[C@H](CO)[C@H](O)[C@H](O)[C@H]6O)[C@H](O)[C@H]5O)cc4OC(C)(C)[C@@H]3C[C@H]2C1; t

* * *

valueKind: MDR1-MDCK efflux ratio

Clc1cccc(-c2nnc(Cn3cnc4ccccc43)o2)c1; 0.866
Cc1ccc(C(=O)NC[C@H]2Cn3ccnc3CO2)cc1; 7.94
Cc1cc(C(=O)Nc2nnc3n2CCCC3)n(C)n1; 1.44
Cc1nn(CCNS(=O)(=O)N2CCCCC2)c(C)c1C; 1.53
CN1CCC(N(Cc2cccnc2)C(=O)NCCCc2ccccc2)CC1; 131
Nc1ncc(-c2cccc(C(F)(F)F)c2)c(C2CCCCN2C(=O)c2ccccc2)n1 (stereo not given); 1.93
CN1CCCn2c1cc(OCc1cc(F)c(Oc3ccc(C(F)(F)F)nc3)c(F)c1)nc2=O; 12
Clc1cccc(Cl)c1Cc1n[nH]c(CCCn2cccn2)n1; 13.3
Cc1ccc(-c2nc(CC(=O)NCCC(C)C)cs2)cc1; 0.529
O=S(=O)(Cc1csc(C2CCCC2)n1)C1CCCC1; 0.538
Cc1nccc(-c2cccc(NCC(=O)NCC(=O)N3CCCC3)c2)n1; 43.4
CC(=O)N1CCCN(C(=O)Nc2ccc(N(C)C3CCCCC3)c(F)c2)CC1; 28.2
Cc1nc(-c2ccccc2)c(C(=O)Nc2ccc(Cl)cc2)s1; 0.438
Cc1nc2ccc(NC(=O)c3sc(-c4ccccn4)nc3C)cc2s1; 0.685
Cn1c(=O)c(C(=O)CSc2nc3ccccc3n2C)c(N)n(Cc2ccccc2)c1=O; 13
O=C(CC1CCN(c2ncc(Cl)cn2)CC1)N1CCOCC1; 0.764
CN1CCC(NS(=O)(=O)C2CN(C(=O)c3cccc(Cl)c3)C2)CC1; 28.4
O=C1CC2(CCN(C(=O)NCc3ccccc3)CC2)Oc2ccccc21; 3.06
CCNc1ccnc(N(C)Cc2nc3ccccc3n2C)n1; 1.28
Cc1ccc(S(=O)(=O)Cc2nc(-c3ccc(C(=O)NCc4cccnc4)cc3)oc2C)cc1; 56.4
Cc1cc(Br)ccc1CN(C)C(=O)CO; 0.75
COc1cccc(CC(=O)N2CCOC(c3cc(Nc4nnc(C)s4)cc(C)n3)C2)c1 (stereo not given); 10.7
Cc1ccc(C)c(NC(=O)CN2CCCN(c3ccc(C(F)(F)F)cn3)CC2)c1; 0.959
O=C(NCc1ccc(-n2cncn2)nc1)c1csc2c1CCCC2; 0.992
Fc1ccc(F)c2c(NCc3ccc(N4CCOCC4)nc3)ccnc12; 1.29
Cc1cc(C#N)cc(N2CCc3c(ncn3CCc3ccccc3)C2)n1; 1.22
O=C(CN1CCCN(c2ccc(C(F)(F)F)cn2)CC1)Nc1cccc(F)c1; 0.796
Cc1cc(C(F)(F)F)nc(CCNC(=O)N(C)Cc2c(C)noc2C)n1; 16.4
O=c1c2cnccc2ncn1Cc1ccc2c(c1)CCCO2; 0.724
Clc1ccc2c(c1)CCc1cccnc1C2=C1CCNCC1; 47.8
CCc1nnc(Nc2cc(C)nc(C3CN(C(=O)C(C)C)CCO3)c2)s1 (stereo not given); 40.4
NCc1cccc(C(=O)N2CCCC2)c1; 3.58
CN1CCc2ncnc(N3CCCN(c4nccs4)CC3)c2C1; 4.76
Cc1ccc(F)cc1CNc1cc(C(=O)N(C)C)ccn1; 1.06
CN(Cc1ccc(Br)o1)C(=O)CN1CCCC1=O; 2.67
CC(C)c1ccc(-c2cc3c(=O)n(CCC(=O)NCCN(C)C)ccn3n2)cc1; 86.7
CS(=O)(=O)CCNC(=O)N1CC2(CCCC2)c2ccccc21; 3.67
CC1(C)CC(=O)c2c(C(F)(F)F)nn(-c3ccc(C(N)=O)c(N[C@H]4CC[C@@H](O)CC4)c3)c2C1; 109
CSCCc1nc(-c2cc(C)nc3cc(F)ccc23)n(CCO)n1; 21.8
Cc1cccnc1Nc1cccc(C2CCCN(CC(=O)Nc3nccs3)C2)n1 (stereo not given); 1.49
